- System: T-47D breast
- Method description: NCI-60 one-dose screen, 48 h (100 = growth as untreated, 0 = no growth, -100 = all killed)
- Condition parameters: 10 µM unless noted
Compounds without any hit were thinned out: in the full panel of roughly 83,000, 20% have a hit.
Property measured: growth (%)
Expressed in %, but write only the number.

Worked cases, answers included:
>>> result_number("C=C1CCC2C(C)(CO)C(O)CCC2(C)C1C/C=C1/C(=O)OCC1O/C=C/c1ccccc1 (stereo unspecified)")
33.4
>>> result_number("COc1cc(C(=O)/C=C/c2c(C)n([O-])c3ccc(C(F)(F)F)cc3[n+]2=O)cc(OC)c1OC")
18.3
>>> result_number("C=C(C)[C@@H]1C[C@H](O)Cc2cc(F)ccc2N1")
95.6

State recorded growth with T-47D breast, entry COc1ccc(-c2c(-c3cc(OC)c4c(c3)OCO4)noc2N)cc1 , no comment.
37.3

Provide T-47D breast growth reading for Clc1ccccc1-c1nc2ccccc2[nH]1 .
89.3

====

- Tested on: SK-MEL-5 melanoma
- Method description: NCI-60 one-dose screen, 48 h (100 = growth as untreated, 0 = no growth, -100 = all killed)
- Condition parameters: 10 µM unless noted
About 83,000 compounds went through this panel and 20% of them were active in at least one assay; those are over-represented in the sample as a whole. Calls of active or inactive are those of the source. Rule for the calls: active = growth percent below 10; inactive = the rest.
Quick list: growth per entry.

Fill: growth (SK-MEL-5 melanoma) for this molecule COc1cc2c(c(OC)c1OC)-c1ccc(N)c(=O)cc1[C@@H](NC(C)=O)CC2
-54.3% (active)

====

- Test system: SK-OV-3 ovarian
- Method description: NCI-60 one-dose screen, 48 h (100 = growth as untreated, 0 = no growth, -100 = all killed)
- Condition parameters: 10 µM unless noted
The panel holds about 83,000 compounds, 20% with a hit somewhere; the sample as a whole holds those more often.
Reported growth values for the following molecules.
# unit: % | format: bare number

Below are worked cases with known answers.
>>> result_number("Clc1ccc2c(NC3CCC(NC4CCCCC4)CC3)ccnc2c1 (centres undefined)")
73.4
>>> result_number("CCOC(=O)c1cc(C(=O)c2cc(OC)c(OC)c(OC)c2)n2c1ccc1ccccc12")
34.7
>>> result_number("C=C1C(=O)O[C@H]2[C@H]1CC/C(Cn1cc(CNC(=O)Cc3cn(C(=O)c4ccc(Cl)cc4)c4ccc(OC)cc34)nn1)=C\\CC[C@@]1(C)O[C@@H]21")
88.9

Here is the next item to consider.
Provide SK-OV-3 ovarian growth reading for CCN(CC)CCOc1ccc(/C(=C(/C)c2ccccc2)c2ccc(OC(C)=O)cc2)cc1 .
106

====

Entries and their growth
- System: SW-620 colon
- Method description: NCI-60 one-dose screen, 48 h (100 = growth as untreated, 0 = no growth, -100 = all killed)
- Condition parameters: 10 µM unless noted
This is part of a sample that, as a whole, favours compounds with a hit. Of some 83,000 tested, about 20% had one in any assay.
Give the value in % but do not write % after it.

>>> result_number("C/C=C(\\C)C(C(=O)NC1CCCCC1)N(C(=O)C1CCc2cc(F)ccc2O1)c1ccc(Cl)cc1 (stereo not given)")
103
>>> result_number("Nc1cccc(-c2nc3sccn3c2-c2ccnc(NCCCNS(=O)(=O)c3cccc4ccccc34)n2)c1")
68.2
>>> result_number("CC(C)(C)N1CCC1C(N)=O (stereo not given)")
97.7
>>> result_number("COc1ccc(CCNC2=CC(=O)CCC2)cc1OC")
101
>>> result_number("Clc1ccccc1-c1nc2ccccc2[nH]1")
94.6
>>> result_number("COc1ccc(-c2nc(N3CCCC3=O)sc2Br)cc1OC")
102
>>> result_number("Fc1ccc(CNCCNc2ncnc3c2cnn3-c2ccccc2)cc1")
103
>>> result_number("COc1cc(C(=O)/C=C/c2c(C)n([O-])c3ccc(C(F)(F)F)cc3[n+]2=O)cc(OC)c1OC")
26

Tell me growth reported for Cc1ccc(-c2csc(NC(=O)CCCCl)n2)cc1
107

====

- Tested on: EKVX NSCLC
- Method description: NCI-60 one-dose screen, 48 h (100 = growth as untreated, 0 = no growth, -100 = all killed)
- Condition parameters: 10 µM unless noted
- Experimental: Growth inhibition of the EKVX human Non-Small Cell Lung tumor cell line is measured as a screen for anti-cancer activity. Cells are grown in 96 well plates and exposed to the test compound for 48 hours. Compounds are tested at a single concentration, which is 10^-5 M for most compounds. The reported endpoint is percent growth (GI% or GIPRCNT), where numbers from 0 - 100% represent growth inhibition, and numbers from -100% - 0 represent cell death. […]
Compounds without any hit were thinned out: in the full panel of roughly 83,000, 20% have a hit.
As shown below, each of these compounds has a reported growth value.
Note: unit % is implicit; provide only the numeric part.

Some solved cases for reference:
>>> result_number("COc1ccc(Nc2[nH]n3c(=O)cc(-c4ccccc4)nc3c2C(=O)Nc2ccc(C)cc2)c(OC)c1")
89.8
>>> result_number("CC(NNC(C)c1ccccc1)c1ccccc1 (centres undefined)")
97.2
>>> result_number("O=C(NCCCNc1nccc(-n2ccc3cccnc32)n1)c1c(F)cccc1F")
93.4

# next compound below
Quick one: give measured growth for O=C(Nc1ccncc1)C(=O)c1cn(S(=O)(=O)c2ccc(Oc3ccccc3)cc2)c2ccccc12
42.3

====

- Tested on: A549/ATCC NSCLC
- Method description: NCI-60 one-dose screen, 48 h
- Condition parameters: 10 µM unless noted
Compounds without any hit were thinned out: in the full panel of roughly 83,000, 20% have a hit. Calls of active or inactive are those of the source. Rule for the calls: active = growth percent below 10; inactive = the rest.
Would you mind answering with one of these outcomes? active, inactive

>>> assigned_category("c1ccc(-c2cn(-c3ccccc3)c(-c3ccccc3)n2)cc1")
"inactive"
>>> assigned_category("O=C(CSC1CCc2ccccc21)N/N=C/c1ccccc1O (stereo unspecified)")
"inactive"
>>> assigned_category("COc1cccc(/C=C/C(=O)Nc2cc(OC)c3c(c2)OCO3)c1")
"inactive"

What outcome does the record of this test show for C=C(C)[C@@H]1C[C@H](O)Cc2cc(F)ccc2N1 ?
inactive

State the result this test recorded for Cc1ccc(CSC(=N)N)cc1C .
inactive

====

- Tested on: OVCAR-4 ovarian
- Method description: NCI-60 one-dose screen, 48 h
- Condition parameters: 10 µM unless noted
This is part of a sample that, as a whole, favours compounds with a hit. Of some 83,000 tested, about 20% had one in any assay. The source made the active and inactive calls. The calls were made as follows: active = growth percent below 10; inactive = the rest.
Log the outcome using a class from active, inactive

>>> assigned_category("Nc1cccc(-c2nc3sccn3c2-c2ccnc(NCCNS(=O)(=O)c3ccc(C(F)(F)F)cc3)n2)c1")
"inactive"
>>> assigned_category("Clc1cc(Cl)cc(-c2ccc(-c3ccc(/C=N/NC4=NCCN4)cc3)s2)c1")
"inactive"
>>> assigned_category("CCCCCCCC/C=C/CCCCCCCC1=NC(C)(C)CN1C(C)(C)CO")
"inactive"
>>> assigned_category("Cc1c(C(=N)C(C#N)C#N)c(=N)oc2c1ccc1ccccc12")
"inactive"
>>> assigned_category("N[C@H]1CN(C(=O)c2cc3cc(Br)c(F)c(F)c3[nH]2)C[C@@H]1O")
"inactive"

Per the assay record, what outcome was assigned to Clc1ccc2c(NC3CCC(NC4CCCCC4)CC3)ccnc2c1 (stereo unspecified) ?
inactive

Give the logged outcome of this assay for the following compound: COc1ccc2c(c1)C(c1cc(OC)c3c(c1)OCO3)C1=C(COC1=O)N2 (stereo unspecified)
inactive

What is the recorded call for this compound in the test? O=C(Nc1cccc(-n2cc(-c3ccncc3)c(-c3ccc(Cl)c(O)c3)n2)c1)Nc1cccc(C(F)(F)F)c1
inactive

How did this test come out for COc1cc(Nc2ncccc2C(=O)NCc2cn(Cc3cccc(Oc4ccccc4)c3)nn2)cc(OC)c1 ?
inactive

Lab log entry: CCCCCCCCCCCCNC(=O)[C@H]1CSC(c2cc3ccccc3s2)N1 (stereo partly specified) — outcome as called in the assay?
active

Please let me know the test result on file for NC(=N\N=C/c1ccc(O)cc1)/C(N)=N\N=C/c1ccc(O)cc1 .
inactive

What is the recorded call for this compound in the test? COc1ccc(-c2nc(SCCC(C)C)nc(Nc3ccc(F)c(Cl)c3)c2C#N)cc1
active

Kindly provide the recorded test outcome for the following compound: COc1ccc2c(c1)[nH]c(=O)c1c3cccc(F)c3cn21
inactive

Recorded call for O=C(NCCNc1nccc(-n2ccc3cccnc32)n1)c1ccc(C(F)(F)F)cc1 ?
inactive

Hi team, can someone confirm the assay call for COc1ccc(C(=O)N2NC(=O)/C(=C/c3ccc(F)cc3)N=C2c2ccccc2)cc1 ?
inactive

Hi, sorry to bother you, what did the test record for CC(=O)OC[C@]12CC[C@H]3[C@@H](C[C@H]4O[C@]45CC=CC(=O)[C@]35C)[C@]1(O)CC[C@@]2(O)[C@@](C)(O)C1CC(C)=C(C)C(=O)O1 (stereo partly specified) ?
inactive

Name the outcome recorded for COc1ccc(C2C(C#N)=C(N)Oc3c2ccc2ccccc32)cc1 (stereo unspecified) in the assay.
inactive

// param item: COc1cc(/C=C/c2cc(/C=C/c3ccc(O)c(OC)c3)n(C(N)=O)n2)ccc1O ; yields the recorded call
active

Hi, do you know how COc1cc(-c2nn(-c3cccc(NC(=O)c4ccc(Cl)c(C(F)(F)F)c4)c3)cc2-c2ccncc2)ccc1Cl came out in this test?
inactive

Please indicate how the test categorized C=C(C)[C@@H]1CC[C@]2(C(=O)O)CC[C@]3(C)[C@H](CC[C@@H]4[C@@]5(C)C[C@@H](CC#Cc6ccc(C(F)(F)F)cc6)[C@H](O)C(C)(C)[C@@H]5CC[C@]43C)[C@@H]12 .
active

Dear all, I need the recorded test outcome for COc1ccc(Nc2nc(N)nc3c2CCN(Cc2ccc(OC)cc2OC)C3=O)cc1 , thank you.
inactive

I'd appreciate the recorded outcome for COc1ccc(/C=C/c2c(C(C)=O)c(C)nc3ccccc23)cc1 from this test.
inactive

What did the test return for Cc1ccc2[nH]c(=O)c3c(c2c1)Oc1ncn2nc(-c4ccco4)nc2c1C3c1ccc(Cl)cc1 (stereo unspecified) ?
inactive

Give the logged outcome of this assay for the following compound: O=C(Nc1ccc2c(c1)OCCO2)C(=O)c1c[nH]c2ccccc12
inactive
